Test system: HL-60(TB) leukemia
Assay Overview: NCI-60 one-dose screen, 48 h (100 = growth as untreated, 0 = no growth, -100 = all killed)
Test Parameters: 10 µM unless noted
Protocol: Growth inhibition of the HL-60(TB) human tumor cell line is measured as a screen for anti-cancer activity. Cells are grown in 96 well plates and exposed to the test compound for 48 hours. Compounds are tested at a single concentration, which is 10^-5 M for most compounds. The reported endpoint is percent growth (GI% or GIPRCNT), where numbers from 0 - 100% represent growth inhibition, and numbers from -100% - 0 represent cell death. For example, a value of 40 represents 60% growth inhibition. […]
Compounds without any hit were thinned out: in the full panel of roughly 83,000, 20% have a hit.
Property Label: growth (%)

Compound: c1ccc(-c2cc3cc4ccccc4cn3c2)cc1
Obs Value: 94.6
//
Compound: CCOc1ccc(/C=N/Nc2cc(C)nc3ccc(Br)cc23)cc1
Obs Value: 53.3
//
Compound: O=C(O)COc1ccccc1F
Obs Value: 104
//
Compound: COc1cc(CCNc2cnc3cc(N)cc(N)c3n2)cc(OC)c1
Obs Value: 27.9
//
Compound: Fc1ccc(-c2cnc3nonc3n2)c(F)c1
Obs Value: 7.84
//
Compound: O=C(O)c1cn(C2CC2)c2cc(N3CCN(C(=O)Nc4nc(-c5ccc(Br)cc5)cs4)CC3)c(F)cc2c1=O
Obs Value: -2.62
//
Compound: O=S(=O)(Nc1ncccn1)c1ccc(Nc2ccc3nnc(-c4ccncc4)n3n2)cc1
Obs Value: 101
//
Compound: COc1ccc(C(=O)N/N=C/c2ccc(O)cc2O)cc1Nc1ccnc(C(F)(F)F)c1
Obs Value: 14.4
//
Compound: COc1ccc(/C=C/C(=O)c2ccc([N+](=O)[O-])cc2)cc1
Obs Value: 82
//
Compound: COc1ccc2c3c(c(OCCCN(C)C)nc2c1)-c1ccc(Cl)cc1C3=O
Obs Value: 70.7
//
Compound: CC(C)=CCc1cc2c(cc1O)C1=C(C(=O)C3=C(C1=O)S(=O)(=O)CCN3)C(C=C(C)C)O2 (stereo unspecified)
Obs Value: -36
//
Compound: O=C(Nc1cccc(Cn2c(=O)[nH]c3ccc(Oc4ncccn4)cc3c2=O)c1)c1cccc(F)c1
Obs Value: 89.9
//
Compound: COc1ccc(C(=O)c2cc(OC)c(OC)c(OC)c2)cc1O
Obs Value: -29.1
//
Compound: O=C1NC(=O)C(=Cc2cn(Cc3cn(Cc4ccc(Cl)cc4Cl)nn3)c3ccccc23)C(=O)N1
Obs Value: 73.8
//
Compound: O=C1c2cccc3cccc(c23)C(=O)N1CCCCCCCCCCN1C(=O)c2cccc3cccc(c23)C1=O
Obs Value: 99.6
//
Compound: COc1cc2c(Nc3ccc(Br)cc3F)ncnc2cc1OCC1CCN(C)CC1
Obs Value: 0.964
//
Compound: CCN(CC)CCN1C(=O)c2cccc3c(-c4ccc5c(c4)ncn5C4CCCCC4)ccc(c23)C1=O
Obs Value: -15.2
//
Compound: COc1ccc(C2C3(C#N)C(N)=NC(=C(C#N)C#N)C23C#N)cc1OC (stereo unspecified)
Obs Value: 107
//
Compound: FC(F)(F)c1cccc(CNC2CCN(CCc3ccccc3)CC2)c1
Obs Value: 46.2
//
Compound: COc1cc(-c2nc(C(=O)NCC(=O)NO)nn2-c2ccc(Cl)cc2)cc(OC)c1OC
Obs Value: 97.4
//
Compound: O=C(NCCNc1nccc(-c2c(-c3cccc(O)c3)nc3sccn23)n1)c1ccccc1
Obs Value: 93.3
